molecular target: EGFRvIII, full length, expressed by transfected cells (NR6 M, H1477, 300.19/EGFRvIII) (human, UniProt P00533 298-1210); assay: cell-based or functional assay
Attribute: FACS Geometric mean, With glutathione 4° C.
Give the number; geometric mean is assumed, so skip it.

Sample records with FACS Geometric mean, With glutathione 4° C.:
{"binder": "SC-EGFRvIII-XG1-211 (antibody, V domains shown, also called SC211; sc211) VH: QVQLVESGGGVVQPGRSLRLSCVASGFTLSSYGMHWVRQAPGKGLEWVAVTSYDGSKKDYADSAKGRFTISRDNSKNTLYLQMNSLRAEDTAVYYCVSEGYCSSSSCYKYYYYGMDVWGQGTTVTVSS VL: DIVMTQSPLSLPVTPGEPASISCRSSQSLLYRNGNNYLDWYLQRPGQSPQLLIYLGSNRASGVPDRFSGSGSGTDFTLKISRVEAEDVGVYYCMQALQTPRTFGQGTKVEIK", "reported": 4.78}
{"binder": "SC-EGFRvIII-XG1-250 (antibody, V domains shown, also called SC250; sc250) VH: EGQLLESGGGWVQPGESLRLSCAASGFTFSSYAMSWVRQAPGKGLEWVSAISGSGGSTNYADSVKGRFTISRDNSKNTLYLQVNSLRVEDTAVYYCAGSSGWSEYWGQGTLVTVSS VL: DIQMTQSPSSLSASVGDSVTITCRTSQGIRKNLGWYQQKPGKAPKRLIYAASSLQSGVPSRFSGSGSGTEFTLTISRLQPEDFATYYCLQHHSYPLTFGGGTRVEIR", "reported": 4.84}
{"binder": "AB-EGFRvIII-XG1-095 (antibody, V domains shown, also called SC95; sc95) VH: QVQLQESGPFLVKPSQTLSLTCTVSGGSISSGGYYWSWIRQHPGKGLEWIGFIYYRGNTYYNPSLKSRVTISVDTSKNQFSLKLSSVTAADTAVYYCARDGYCSRTGCYGGWFDPWGQGTLVTVSP VL: DIVMTQTPLSSPVTLGQPASISCRSSQSLIHTDGNIYLSWLQQRPGQPPRLLIYKISNRFSGVPDRFSGSGAGTDFTLKISRVEAEDVGVYYCMQGTQFPITFGQGTRLEIK", "reported": 5.13}

# context switch: different binder, same FACS Geometric mean, With glutathione 4° C.
-- ask Quick one: FACS Geometric mean, With glutathione 4° C. for SC-EGFRvIII-XG1-139 (antibody, V domains shown, also called SC139; sc139) VH: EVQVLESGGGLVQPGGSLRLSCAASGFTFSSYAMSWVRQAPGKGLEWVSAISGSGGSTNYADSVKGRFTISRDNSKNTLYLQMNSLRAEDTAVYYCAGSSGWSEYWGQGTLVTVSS VL: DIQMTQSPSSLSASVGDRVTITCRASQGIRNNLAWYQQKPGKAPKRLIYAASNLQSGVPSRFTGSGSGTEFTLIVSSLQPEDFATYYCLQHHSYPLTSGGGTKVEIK ?
-- reply 4.88
